procedure-text: Pharmacokinetic evaluation in plasma after IV and PO administration
Format: in vivo
settings: mouse, female Balb/c mice, PO 10 mg/kg, read-out: MRT0-last

{"molecule": "CNC(=O)c1cccc(-c2ccc3c(N4CCOC[C@@H]4C)nc(N4CCOC5(CCC5)C4)nc3n2)c1", "MRT last [h]": 2.39}
{"molecule": "CNC(=O)c1cccc(-c2ccc3c(N4CCOC[C@@H]4C)nc(N4CCOC[C@@H]4C)nc3n2)c1 [AZD2014, reference compound]", "MRT last [h]": 2.45}
{"molecule": "C[C@H]1COCCN1c1nc(N2CCOC3(CC3)C2)nc2nc(-c3cccc(C(N)=O)c3)ccc12", "MRT last [h]": 3.02}
{"molecule": "CNC(=O)c1cccc(-c2ccc3c(N4CCOC[C@@H]4C)nc(N4CCOC5(CC5)C4)nc3n2)c1", "MRT last [h]": 2.69}

----------
measured-target: mTOR kinase (mTORC1 and mTORC2 kinase complex) (Homo sapiens, UniProt P42345)
procedure-text: In vitro evaluation of mTOR kinase inhibitory activity (DiscoverX ligand-bead competition binding, qPCR readout)

{"compound": "C[C@H]1COCCN1c1nc(N2CCOC3(CC3)C2)nc2nc(-c3cccc(-c4ccn[nH]4)c3)ccc12 [Embodiment 17]", "Kd": "3400 pM"}
{"compound": "C[C@H]1COCCN1c1nc(N2CCOC3(CCC3)C2)nc2nc(-c3cccc(C(N)=O)c3)ccc12 [Embodiment 44]", "Kd": "240 pM"}
{"compound": "C[C@H]1COC2(CCC2)CN1c1nc(N2CCOC[C@@H]2C)c2ccc(-c3cccc(C(N)=O)c3)nc2n1 [Embodiment 35]", "Kd": "400 pM"}
{"compound": "CNC(=O)c1cccc(-c2ccc3c(N4CCOC[C@@H]4C)nc(N4CCOC5(C4)C[S+]([O-])C5)nc3n2)c1 (some centres unmarked) [Embodiment 42]", "Kd": "930 pM"}
{"compound": "CNC(=O)c1cccc(-c2ccc3c(N4CCOC[C@@H]4C)nc(N4CCOC5(CCCC5)C4)nc3n2)c1 [Embodiment 24]", "Kd": "410 pM"}
{"compound": "CC1COCCN1c1nc(N2CCOC3(CCCC3)C2)nc2nc(-c3cccc(C(N)=O)c3)ccc12 (centres unmarked) [Embodiment 49]", "Kd": "300 pM"}
{"compound": "CNC(=O)c1cccc(-c2ccc3c(N4CCOCC4C)nc(N4CCOC5(CCOC5)C4)nc3n2)c1 (single isomer, unassigned) [Embodiment 32-2]", "Kd": "1500 pM"}
{"compound": "C[C@H]1COCCN1c1nc(N2CCOC3(CC3)C2)nc2nc(-c3ccc4ccc(N)nc4c3)ccc12 [Embodiment 14]", "Kd": "250 pM"}

----------
System: human breast cancer MCF-7 cell subcutaneous xenograft tumor
procedure-text: In vivo pharmacodynamic study, MCF-7 subcutaneous xenograft tumor
Design: species or system BALB/c nude mouse
settings: 15 mg/kg
measurement-name: TGI (%)

{"molecule": "C[C@H]1COCCN1c1nc(N2CCOC3(CCC3)C2)nc2nc(-c3cccc(C(N)=O)c3)ccc12", "measured-target": "human breast cancer MCF-7 cell subcutaneous xenograft tumor", "obs-value": 65.23}
{"molecule": "CNC(=O)c1cccc(-c2ccc3c(N4CCOC[C@@H]4C)nc(N4CCOC5(CCC5)C4)nc3n2)c1", "measured-target": "human breast cancer MCF-7 cell subcutaneous xenograft tumor", "obs-value": 59.05}
{"molecule": "C[C@H]1COCCN1c1nc(N2CCOC3(CC3)C2)nc2nc(-c3cccc(C(N)=O)c3)ccc12", "measured-target": "human breast cancer MCF-7 cell subcutaneous xenograft tumor", "obs-value": 59.27}
{"molecule": "CC1COCCN1c1nc(N2CCOC3(CCCC3)C2)nc2nc(-c3cccc(C(N)=O)c3)ccc12 (stereo not shown)", "measured-target": "human breast cancer MCF-7 cell subcutaneous xenograft tumor", "obs-value": "−37.89"}

----------
procedure-text: Pharmacokinetic evaluation in plasma after IV and PO administration
Assay type: in vivo
settings: mouse, female Balb/c mice, IV 2 mg/kg, read-out: MRT0-inf
Quick reference for MRT inf among some compounds

{"compound": "CNC(=O)c1cccc(-c2ccc3c(N4CCOC[C@@H]4C)nc(N4CCOC5(CC5)C4)nc3n2)c1", "MRT inf (h)": 1.38}
{"compound": "C[C@H]1COCCN1c1nc(N2CCOC3(CC3)C2)nc2nc(-c3cccc(C(N)=O)c3)ccc12", "MRT inf (h)": 1.6}
{"compound": "CNC(=O)c1cccc(-c2ccc3c(N4CCOC[C@@H]4C)nc(N4CCOC[C@@H]4C)nc3n2)c1 [AZD2014, reference compound]", "MRT inf (h)": 1.24}
{"compound": "CNC(=O)c1cccc(-c2ccc3c(N4CCOC[C@@H]4C)nc(N4CCOC5(CCC5)C4)nc3n2)c1", "MRT inf (h)": 1.36}

----------
Quick reference for AUC(0-inf) among some molecules
procedure-text: Pharmacokinetic evaluation in plasma after IV and PO administration
Assay type: in vivo
settings: mouse, female Balb/c mice, PO 2 mg/kg
measurement-name: AUC(0-inf) (µM·h)

{"molecule": "C[C@H]1COC2(CCC2)CN1c1nc(N2CCOC[C@@H]2C)c2ccc(-c3cccc(C(N)=O)c3)nc2n1", "measurement-name": "AUC(0-inf)", "obs-value": 8.75}
{"molecule": "CNC(=O)c1cccc(-c2ccc3c(N4CCOC[C@@H]4C)nc(N4CCOC[C@@H]4C)nc3n2)c1 [AZD2014, reference compound]", "measurement-name": "AUC(0-inf)", "obs-value": 7.24}
{"molecule": "CNC(=O)c1cc(-c2ccc3c(N4CCOC[C@@H]4C)nc(N4CCOC5(CC5)C4)nc3n2)ccc1OC", "measurement-name": "AUC(0-inf)", "obs-value": 16.3}

----------
Quick reference for pKd among some molecules
measured-target: mTOR kinase (mTORC1 and mTORC2 kinase complex) (Homo sapiens)
procedure-text: In vitro evaluation of mTOR kinase inhibitory activity (DiscoverX ligand-bead competition binding, qPCR readout)
pKd: −log10 of the molar value.
measurement-name: pKd

{"molecule": "Nc1nc2cc(-c3ccc4c(N5C6CCC5COC6)nc(N5CCOC6(CC6)C5)nc4n3)ccc2o1 [Embodiment 11]", "measured-target": "mTOR kinase (mTORC1 and mTORC2 kinase complex) (Homo sapiens)", "obs-value": 8.92}
{"molecule": "CONC(=O)c1cccc(-c2ccc3c(N4CCOC[C@@H]4C)nc(N4CCOC5(CC5)C4)nc3n2)c1 [Embodiment 3]", "measured-target": "mTOR kinase (mTORC1 and mTORC2 kinase complex) (Homo sapiens)", "obs-value": 9.49}
{"molecule": "CNC(=O)c1cccc(-c2ccc3c(N4CCOC[C@@H]4C)nc(C4CCC5(CC4)OCCO5)nc3n2)c1 [Embodiment 5]", "measured-target": "mTOR kinase (mTORC1 and mTORC2 kinase complex) (Homo sapiens)", "obs-value": 9.18}
{"molecule": "CNC(=O)c1cccc(-c2ccc3c(N4CCOCC4C)nc(N4CCOC5(CNC(=O)C5)C4)nc3n2)c1 (single isomer, unassigned) [Embodiment 53-1]", "measured-target": "mTOR kinase (mTORC1 and mTORC2 kinase complex) (Homo sapiens)", "obs-value": 8.96}

----------
measured-target: mTOR kinase (mTORC1 and mTORC2 kinase complex) (Homo sapiens, UniProt P42345)
procedure-text: In vitro evaluation of mTOR kinase inhibitory activity (DiscoverX ligand-bead competition binding, qPCR readout)
pKd: −log10 of the molar value.
Quick reference for pKd among some molecules
measurement-name: pKd

{"molecule": "C[C@H]1COCCN1c1nc(N2CCOC3(CC3)C2)nc2nc(-c3cccc(-c4nc[nH]n4)c3)ccc12", "obs-value": 8.52}
{"molecule": "CNC(=S)c1cccc(-c2ccc3c(N4CCOC[C@@H]4C)nc(N4CCOC5(CC5)C4)nc3n2)c1", "obs-value": 9.82}
{"molecule": "CNC(=O)c1cccc(-c2ccc3c(N4CCOC[C@@H]4C)nc(N4CCOC5(CC5)C4)nc3n2)c1", "obs-value": 9.07}
{"molecule": "CNC(=O)c1cccc(-c2ccc3c(N4CCOCC4C)nc(N4CCOC5(CC(OC)C5)C4)nc3n2)c1 (single isomer, unassigned) [Embodiment 34-1]", "obs-value": 9.00}
{"molecule": "C[C@H]1COCCN1c1nc(N2CCOC3(CC3)C2)nc2nc(-c3cccc(C(N)=O)c3)ccc12", "obs-value": 9.52}
{"molecule": "CNC(=O)c1cccc(-c2ccc3c(N4CCOCC4C)nc(N4CC5(CCOC5)OCC4C)nc3n2)c1 (single isomer, unassigned) [Embodiment 48-1]", "obs-value": 8.74}
{"molecule": "CNC(=O)c1cccc(-c2ccc3c(N4CCOC[C@@H]4C)nc(N4CCOC5(CCOCC5)C4)nc3n2)c1", "obs-value": 9.19}

----------
procedure-text: Pharmacokinetic evaluation in plasma after IV and PO administration
Type: in vivo
settings: mouse, female Balb/c mice, IV 1 mg/kg, read-out: MRT0-inf
measurement-name: MRT inf (h)

{"compound": "C[C@H]1COC2(CCC2)CN1c1nc(N2CCOC[C@@H]2C)c2ccc(-c3cccc(C(N)=O)c3)nc2n1", "measurement-name": "MRT inf", "obs-value": 2.16}
{"compound": "CNC(=O)c1cc(-c2ccc3c(N4CCOC[C@@H]4C)nc(N4CCOC5(CC5)C4)nc3n2)ccc1OC", "measurement-name": "MRT inf", "obs-value": 1.3}
{"compound": "CNC(=O)c1cccc(-c2ccc3c(N4CCOC[C@@H]4C)nc(N4CCOC[C@@H]4C)nc3n2)c1 [AZD2014, reference compound]", "measurement-name": "MRT inf", "obs-value": 1.88}
